Tested on: Mus musculus
protocol_description: Toxicity in ip dosed C3H X DBA2 F1 hybrid mouse […] with mouse L1210 cells on day 0 and dosed once daily on days 1 to 5 measured after 50 days
Assay type: organism-based
run_parameters: in vivo, 1200 h

input_smiles	target_entity	LD10, mg/kg
CC[n+]1cccc2cc(NC(=O)c3ccc(C(=O)Nc4ccc5c(ccc[n+]5CC)c4)c(N)c3)ccc21.Cc1ccc(S(=O)(=O)[O-])cc1.Cc1ccc(S(=O)(=O)[O-])cc1	Mus musculus	6
CCC[n+]1cccc2cc(NC(=O)/C=C/c3ccc(C(=O)Nc4ccc5c(ccc[n+]5CCC)c4)cc3)ccc21.Cc1ccc(S(=O)(=O)[O-])cc1.Cc1ccc(S(=O)(=O)[O-])cc1	Mus musculus	20
C[n+]1ccc(Nc2ccc(C(=O)Nc3ccc(Nc4cc[n+](C)c5ccc(N)cc45)cc3)c(N)c2)cc1.[Br-].[Br-]	Mus musculus	20
CCC[n+]1cccc(NC(=O)c2ccc(NC(=O)c3ccc(C(=O)Nc4ccc5c(ccc[n+]5CCC)c4)cc3)cc2)c1.Cc1ccc(S(=O)(=O)[O-])cc1.Cc1ccc(S(=O)(=O)[O-])cc1	Mus musculus	20
CC[n+]1cccc(NC(=O)c2ccc(NC(=O)c3ccc(C(=O)Nc4ccc(C(=O)Nc5ccc[n+](CC)c5)cc4)cc3)cc2)c1.Cc1ccc(S(=O)(=O)[O-])cc1.Cc1ccc(S(=O)(=O)[O-])cc1	Mus musculus	33
